Sourced from the supplement of paper PMC10567573

# protein stability index per record follows
B1: EIF5 (parent)
chain: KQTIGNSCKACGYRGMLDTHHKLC

Variants of: B1
Assay: protein stability index of a GFP-peptide fusion (GPS, HEK-293T) (PSI 1-6); higher = more stable;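 note: lentivirally expressed fusions sorted by FACS into six bins by GFP to DsRed ratio, PSI derived from sequencing read proportions per bin multiplied by bin number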
Conditions: c terminus: a fixed tail appended

mutant: H20E
protein stability index: 3.24

Prompt line: Name the recorded protein stability index of the item H21F in your answer.
Response line: 2.35

Prompt line: For the variant I4E , give its measured protein stability index value.
Response line: 3.92

Prompt line: Name the recorded protein stability index of the variant listed here: I4D
Response line: 3.95

Prompt line: Identify measured protein stability index associated with Q2S
Response line: 3.05

Prompt line: Retrieve protein stability index measured for C24V and print it.
Response line: 2.35

Prompt line: Supply measured protein stability index of N6F in your reply.
Response line: 3.34

Prompt line: Give the reported value of protein stability index for this record: Q2T
Response line: 3.05

Prompt line: Hello, please tell me recorded protein stability index for this one: T3V
Response line: 2.38

Prompt line: # return recorded protein stability index for entry T3N
Response line: 3.31

Prompt line: Recall and state the measured protein stability index for H21Q .
Response line: 2.51

Prompt line: Name the recorded protein stability index of the item G15Q in your answer.
Response line: 2.12

Prompt line: Tell us which protein stability index value is on record for Y13F
Response line: 3.21

Prompt line: Respond only with protein stability index recorded for L17S
Response line: 4.24

Prompt line: Specify protein stability index for C24P and stop.
Response line: 1.81
